tested.on: T1, human IL-17A (human, UniProt Q16552 24-155, biotinylated with Sulfo-NHS-LC-Biotin in the AlphaScreen assays only)
T1 construct: also called hIL-17A; recombinant human IL-17A
procedure.summary: SPR Biacore, hIL-17A on chip; periplasmic extract (*)
measured.quantity: koff
Note: a bare number is incomplete; add the unit.

Below: 3 binders and their reported koff.
binder | koff
03B08 (VHH, Class 1 Nanobody (anti-IL-17A); not shown: c-myc, His6 tag) VHH: EVQLVESGGGLVQAGGSLRLSCAASGFTFDDYAIGWFRQAPGKEREGVSCISSSDGSIYYADSVKGRFTISSDNAKNTVYLQMNSLKPEDTAVYHCARFGRTGWAEECVDYDYWGQGTQVTVSS | 0.0001 s⁻¹
09D10 (VHH, Class 2 Nanobody (anti-IL-17A and IL-17A/F); not shown: c-myc, His6 tag) VHH: EVQLVESGGGLVQAGGSLSLSCAASGSVFRIDVMRWHRQAPGKQREFLASIASGGTTNYADSVKGRFTISRDNAKNTVYLQMNSLKPEDTAVYYCGANAESGPYTYWGLGTQVTVSS | 0.00015 s⁻¹
01D06 (VHH, Class 2 Nanobody (anti-IL-17A and IL-17A/F); not shown: c-myc, His6 tag) VHH: EVQLVESGGGLVQAGGSLRLSCAADGRTFSTYGMTWFRQVPGKEREFVAHIPRSTYSPYYANSVKGRFTIARDDAKSTVYLQMNSLKPEDTAVYYCAVFTGGTYYVPTAYDYWGQGTQVTVSS | 0.00097 s⁻¹

Q: Query koff for 01G03 (VHH, Class 1 Nanobody (anti-IL-17A); not shown: c-myc, His6 tag) VHH: EVQLVESGGGLVQAGGSLRLSCAASERTISNYDMGWFRQAPGKERELIAADISWSALNTNYADSVKGRFTISRDNAKNMVYLQMNNLKPEDTAVYYCAARRSGYASFDNWGQGTQVTVSS
Result: 0.00045 s⁻¹
